Biological target: μ-opioid receptor (Homo sapiens, UniProt P35372)
Sequence (P35372 whole entry, species assumed): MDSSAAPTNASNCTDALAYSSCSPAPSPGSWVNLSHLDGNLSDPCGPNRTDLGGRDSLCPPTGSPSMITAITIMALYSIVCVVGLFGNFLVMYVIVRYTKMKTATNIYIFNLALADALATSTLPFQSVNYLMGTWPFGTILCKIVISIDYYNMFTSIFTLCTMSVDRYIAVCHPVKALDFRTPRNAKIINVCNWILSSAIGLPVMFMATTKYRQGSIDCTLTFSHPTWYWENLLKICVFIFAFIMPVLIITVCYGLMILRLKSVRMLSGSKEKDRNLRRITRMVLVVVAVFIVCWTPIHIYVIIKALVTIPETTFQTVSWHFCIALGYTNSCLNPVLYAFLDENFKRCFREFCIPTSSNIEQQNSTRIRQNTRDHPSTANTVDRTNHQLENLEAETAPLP
Test: biochemical
Parameters: purchased Perkin Elmer, Shelton, Conn; host or cells: HEK-293 or CHO
Conditions: HEK-293 or CHO cells; relative to DAMGO; read-out: GTPγS μ Emax
MEASURED QUANTITY: Emax (%)

> print(dat)
                                    compound  recorded.value
 1  COc1ccc2c(c1)[C@]1(CCNC(=O)[C@@H]3CCC(=O)N3)CCN(C)[C@H](C2)[C@@H]1C [Compound 84]            32.4
 2  C[C@H]1[C@H]2Cc3ccc(O)cc3[C@]1(CC(=O)NCCc1ccc(S(N)(=O)=O)cc1)CCN2C [Compound 62]              17
 3  C[C@H]1[C@H]2Cc3ccc(O)cc3[C@]1(CC(=O)N1CCC(N(C3CC3)S(=O)(=O)c3ccc(Cl)cc3)CC1)CCN2C [Compound 61]            35.7
 4  C[C@H]1[C@H]2Cc3ccc(O)cc3[C@]1(CCNC(=O)[C@@H]1CCCN1)CCN2C [Compound 71]              36
 5  CCOC(=O)c1ccc(NC(=O)NCC[C@]23CCN(CC4CC4)[C@H](Cc4ccc(OC)cc42)[C@@H]3C)cc1 [Compound 1]            27.8
 6  CC(C)C[C@H](NCCCC[C@]12CCN(CC3CC3)[C@H](Cc3ccc(O)cc31)[C@@H]2C)C(=O)O [Compound 24]            19.5
 7  COC(=O)[C@@H](NCC[C@@]12CCN(CC3CC3)[C@@H](Cc3ccc(OC)cc31)[C@H]2C)C(C)C [Compound 37]            19.3
 8  C[C@H]1[C@H]2Cc3ccc(O)cc3[C@]1(CCNC(=O)[C@@H]1CCC(=O)N1)CCN2C [Compound 72]            37.2
 9  COc1ccc2c(c1)[C@]1(CCOCc3ccccc3)CCN(C)[C@H](C2)[C@@H]1C [Compound 48]            53.1
10  C[C@H]1[C@H]2Cc3ccc(O)cc3[C@]1(CCNC(=O)Nc1ccc(F)cc1)CCN2C [Compound 76]            58.5
11  C[C@H]1[C@H]2Cc3ccc(O)cc3[C@]1(CCNC(=O)Nc1cccc(F)c1)CCN2C [Compound 79]            71.6
12  C[C@H]1[C@H]2Cc3ccc(O)cc3[C@]1(CCNCCc1ccc(S(N)(=O)=O)cc1)CCN2C [Compound 59]              38
13  C[C@H]1[C@H]2Cc3ccc(O)cc3[C@]1(CCNS(C)(=O)=O)CCN2C [Compound 13]              25
14  C[C@H]1[C@H]2Cc3ccc(O)cc3[C@]1(CCNC(=O)[C@@H]1CCCCN1)CCN2CC1CC1 [Compound 11]              23
15  C[C@H]1[C@H]2Cc3ccc(O)cc3[C@]1(CCNC(=O)Nc1ccccc1F)CCN2C [Compound 78]              71
16  C[C@H]1[C@H]2Cc3ccc(O)cc3[C@]1(CCCC(=O)N(C)C)CCN2CC1CCC1 [Compound 28]               1
17  C[C@H]1[C@H]2Cc3ccc(O)cc3[C@]1(CCNC(=O)NCc1ccccc1)CCN2CC1CC1 [Compound 21]            54.7
18  C[C@H]1[C@H]2Cc3ccc(O)cc3[C@]1(CCN1CCC(N(C3CC3)S(=O)(=O)c3ccccc3)CC1)CCN2C [Compound 7]            54.5
19  C[C@H]1[C@H]2Cc3ccc(O)cc3[C@]1(CCNCc1ccco1)CCN2CC1CC1 [Compound 17]           -0.88
20  C[C@H]1[C@H]2Cc3ccc(O)cc3C1(CCN[C@H]1C[C@H]3CCC[C@@H](C1)N3[C@@H]1C[C@@H]3CCCC[C@@H](C3)C1)CCN2C [Compound 63]            74.7
21  C[C@H]1[C@H]2Cc3ccc(O)cc3[C@]1(CCNC(=O)[C@@H]1CCCC(=O)N1)CCN2CC1CC1 [Compound 82]             8.9
22  C[C@H]1[C@H]2Cc3ccc(O)cc3[C@]1(CCNC(=O)NS(=O)(=O)c1ccc(F)cc1)CCN2C [Compound 66]            37.3
23  C[C@H]1[C@H]2Cc3ccc(O)cc3[C@]1(CCN(C)C)CCN2C [Compound 22]            37.3
24  C[C@H]1[C@H]2Cc3ccc(O)cc3[C@]1(CCNCc1ccc(F)cc1)CCN2CC1CC1 [Compound 16]            10.8
25  COC(=O)c1ccc(CC(=O)NCC[C@]23CCN(CC4CC4)[C@H](Cc4ccc(OC)cc42)[C@@H]3C)cc1 [Compound 30]               0
26  COC(=O)[C@H](Cc1ccccc1)NCCCC[C@]12CCN(CC3CC3)[C@H](Cc3ccc(O)cc31)[C@@H]2C [Compound 27]               1
27  C[C@H]1[C@H]2Cc3ccc(O)cc3[C@]1(CCNC(=O)NCC(c1ccccc1)c1ccccc1)CCN2C [Compound 77]            57.1
28  COc1ccc2c(c1)[C@]1(CCNC(=O)CN)CCN(CC3CC3)[C@H](C2)[C@@H]1C [Compound 33]            92.7
29  COc1ccc2c(c1)[C@]1(CCNC3(C(=O)O)CC3)CCN(CC3CC3)[C@H](C2)[C@@H]1C [Compound 34]            70.3
30  C[C@H]1[C@H]2Cc3ccc(O)cc3[C@]1(CCCCN[C@@H](CCCCN)C(=O)O)CCN2CC1CC1 [Compound 25]               1

Data provenance: patent US10130615B2
